# Study system: human ether-à-go-go-related gene (hERG) potassium channel (human, UniProt Q12809);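 further: peak tail current of the secondary pulse compared with the same well before compound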
# Sequence (Q12809 whole entry, looked up): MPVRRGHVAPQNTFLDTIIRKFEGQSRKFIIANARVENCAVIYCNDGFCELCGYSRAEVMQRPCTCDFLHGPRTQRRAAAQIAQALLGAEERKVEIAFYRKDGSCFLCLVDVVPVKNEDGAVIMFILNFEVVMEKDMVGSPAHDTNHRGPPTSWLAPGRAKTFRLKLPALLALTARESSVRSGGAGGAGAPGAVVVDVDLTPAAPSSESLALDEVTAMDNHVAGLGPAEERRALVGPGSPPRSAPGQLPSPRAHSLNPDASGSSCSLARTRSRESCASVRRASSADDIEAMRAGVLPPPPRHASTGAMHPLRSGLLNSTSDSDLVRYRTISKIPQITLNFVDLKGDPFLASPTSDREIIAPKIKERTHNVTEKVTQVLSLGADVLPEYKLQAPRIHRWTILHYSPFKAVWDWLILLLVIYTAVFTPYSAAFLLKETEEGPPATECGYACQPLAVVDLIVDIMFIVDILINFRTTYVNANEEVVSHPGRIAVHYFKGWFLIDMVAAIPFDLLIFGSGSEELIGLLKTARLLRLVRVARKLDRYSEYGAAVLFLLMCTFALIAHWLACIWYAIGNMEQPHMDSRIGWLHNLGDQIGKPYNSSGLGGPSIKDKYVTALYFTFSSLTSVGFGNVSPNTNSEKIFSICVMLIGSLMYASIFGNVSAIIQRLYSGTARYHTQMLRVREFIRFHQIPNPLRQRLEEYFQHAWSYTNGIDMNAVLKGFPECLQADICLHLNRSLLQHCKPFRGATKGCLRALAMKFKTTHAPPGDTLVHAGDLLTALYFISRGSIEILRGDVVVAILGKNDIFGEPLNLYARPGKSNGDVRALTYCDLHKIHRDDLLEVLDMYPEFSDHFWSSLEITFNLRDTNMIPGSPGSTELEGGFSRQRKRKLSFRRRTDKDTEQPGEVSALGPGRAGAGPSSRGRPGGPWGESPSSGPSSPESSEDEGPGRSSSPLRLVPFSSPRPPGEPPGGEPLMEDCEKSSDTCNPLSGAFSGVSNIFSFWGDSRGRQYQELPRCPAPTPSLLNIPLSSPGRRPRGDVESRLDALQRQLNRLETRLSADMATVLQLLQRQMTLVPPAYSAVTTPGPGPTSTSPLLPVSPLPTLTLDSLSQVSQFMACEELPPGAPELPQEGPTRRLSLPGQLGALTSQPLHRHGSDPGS
# Assay: primary screen, population patch clamp on CHO cells stably expressing hERG; higher = less effect of the substance
# Experimental: Briefly, Chinese hamster ovary (CHO) cells stably expressing the hERG channel were dislodged from tissue culture flasks and dispensed into PPC plates. […] During the recording, background leak currents were estimated by a 100 ms step to -80 mV from an initial holding potential of -70 mV and subtracted from the subsequent current measurement. The campaign was conducted in two phases using slight differences in recording protocol. […]
The whole screen tested about 310,000 compounds, of which about 14,000 (4.5%) showed an effect of 50% or more. The effect is printed as a negative number. The full list was thinned out, with strong results kept by preference.
Assay endpoint: hERG current change (%, negative = inhibition) at 10uM (%)
Numbers only; they are read as %.

Some entries whose results are on file:
| Molecular string | Val |
| --- | --- |
| Cc1nc(SCC(=O)Nc2ccc(C)c(F)c2)c2oc3ccccc3c2n1 | 4.4 |
| CN1CCN(CCOc2ccc(Cl)c(Cl)c2)CC1.O=C(O)C(=O)O | -22.3 |
| O=C(NNC1=Nc2cccc3cccc1c23)c1ccc(Br)cc1 | 4.78 |
| Clc1ccc(OCCCN2CCCC2)cc1Cl.O=C(O)C(=O)O | -67.7 |

Consider the record given below.
For the compound `O=C(O)C(=O)O.c1ccc(COc2cccc(CN3CCCCC3)c2)cc1` , what hERG current change (%, negative = inhibition) at 10uM is on record?
-19.2

----------
Listing: hERG current change (%, negative = inhibition) at 10uM of selected compounds
# Study system: human ether-à-go-go-related gene (hERG) potassium channel (human, UniProt Q12809);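 further: peak tail current of the secondary pulse compared with the same well before compound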
# Assay: primary screen, population patch clamp on CHO cells stably expressing hERG; higher = less effect of the substance
The campaign covered roughly 310,000 compounds. About 14,000 (4.5%) showed an effect of 50% or more. The effect is printed as a negative number. Many of the other results were omitted from the sample, so strong results are more common in it than they were.
Write it as a number; the unit % goes unstated.

In the examples that follow, each entry is paired with its recorded hERG current change (%, negative = inhibition) at 10uM.
| Molecular string | Val |
| --- | --- |
| Cc1ccc(C)c(S(=O)(=O)N2CCN(C(=O)CCNS(=O)(=O)c3ccccc3)CC2)c1 | -33.6 |
| Cc1[nH]c2ccc(OC(F)(F)F)cc2c1CCNCc1ccc(Cl)cc1.O=C(O)C(=O)O | -34.5 |
| O=C(NCCC(c1ccccc1)c1ccccc1)c1cccs1 | -14.2 |

Which hERG current change (%, negative = inhibition) at 10uM reading was recorded for the compound `NC(=O)c1ccc(NC(=O)CSc2nnc(-c3ccccn3)n2N)cc1` ?
17.1

Param item = `COc1ccc2[nH]c(C)c(CCNCc3cn(C)c4ccccc34)c2c1.O=C(O)C(=O)O` ; retrieve measured hERG current change (%, negative = inhibition) at 10uM.
-27.8

// returns reported hERG current change (%, negative = inhibition) at 10uM for input `Cc1cccc(C(=O)NC2CCN(C(=S)NCc3ccco3)CC2)c1`
-46.7

Using the record for `Cc1ccc(NC(=O)CSc2nnc(-c3ccccn3)n2N)cc1F` , report its hERG current change (%, negative = inhibition) at 10uM.
-48.5

hERG current change (%, negative = inhibition) at 10uM lookup needed for `Cc1cc(-c2nnc(SCC(=O)Nc3cccc(Cl)c3)n2N)n[nH]1` , thanks.
-71.9

Given `CCOc1cccc(CNCCc2c(C)[nH]c3ccc(OC(F)(F)F)cc23)c1O.O=C(O)C(=O)O` , state its recorded hERG current change (%, negative = inhibition) at 10uM.
-51.9

Consider the compound `Cn1cccc1CC(=O)NNC(=S)NC(=O)c1ccccc1Br` and give its measured hERG current change (%, negative = inhibition) at 10uM.
13.1

I am curious: what hERG current change (%, negative = inhibition) at 10uM value has been reported for `O=S(=O)(c1ccc(Cl)cc1)N1CCC(n2cnc3cc(C(F)(F)F)ccc32)CC1` ?
-78.4

Please look up its hERG current change (%, negative = inhibition) at 10uM: `COc1ccc(S(=O)(=O)N2CCC(N3CCCC3)CC2)cc1`
22.3

Need hERG current change (%, negative = inhibition) at 10uM, item `O=C(O)c1ccc(S(=O)(=O)N2CCC(n3nnc4cc(C(F)(F)F)ccc43)CC2)cc1`
-37.7

Fill blank: measured hERG current change (%, negative = inhibition) at 10uM of the compound `O=C(O)c1cccc(S(=O)(=O)N2CCC(n3nnc4cc(C(F)(F)F)ccc43)CC2)c1` is ____.
20.7

Which hERG current change (%, negative = inhibition) at 10uM reading was recorded for the compound `COc1ccc(S(=O)(=O)N2CCC(N3CCCCC3)CC2)cc1` ?
-11.7

Returns the measured hERG current change (%, negative = inhibition) at 10uM for the input compound. Input: `Cc1nc2ccc(S(=O)(=O)NCC(=O)N3CCN(c4ccccc4)CC3)cc2s1`
-1.33

Which hERG current change (%, negative = inhibition) at 10uM is reported for this compound? `COc1ccc2[nH]c(C)c(CCNCc3cccnc3)c2c1.O=C(O)C(=O)O`
-3.77

// lookup hERG current change (%, negative = inhibition) at 10uM for `Cc1cc(-c2nnc(SCC(=O)Nc3cccc(F)c3)n2N)n[nH]1`
6.38

hERG current change (%, negative = inhibition) at 10uM lookup needed for `C=CCn1c(SCC(=O)Nc2c(C)cccc2C)nnc1-c1cnccn1` , thanks.
-2.77

----------
Property: hERG current change (%, negative = inhibition) at 10uM; scope: individual molecules
# Study system: human ether-à-go-go-related gene (hERG) potassium channel (human, UniProt Q12809);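 further: peak tail current of the secondary pulse compared with the same well before compound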
# Assay: primary screen, population patch clamp on CHO cells stably expressing hERG; higher = less effect of the substance
The whole screen tested about 310,000 compounds, of which about 14,000 (4.5%) showed an effect of 50% or more. The effect is printed as a negative number. The list comes from a sample in which strong results are over-represented; it also holds close analogues and randomly drawn compounds.
Form entry: value (%) — number only.

| Molecule | Study system | Unit abbreviation | Val |
| --- | --- | --- | --- |
| COc1ccc2nc(NC(=O)CSc3nnc(C)n3N)sc2c1 | human ether-à-go-go-related gene (hERG) potassium channel (human, UniProt Q12809) | % | 0.177 |
| CCC(CO)NC(=O)c1cccc(S(=O)(=O)N2c3ccccc3CC2C)c1 (centres unmarked) | human ether-à-go-go-related gene (hERG) potassium channel (human, UniProt Q12809) | % | 2.65 |
| CCOc1ccc(N(CC(=O)NC2CCCCC2)C(=O)CCC(=O)Nc2nc(C)cs2)cc1 | human ether-à-go-go-related gene (hERG) potassium channel (human, UniProt Q12809) | % | -50.6 |

Hi! What's the reported hERG current change (%, negative = inhibition) at 10uM for `O=C1/C(=C/c2ccccc2Cl)SC(=S)N1CCCC(=O)N(CCO)c1ccccc1` on human ether-à-go-go-related gene (hERG) potassium channel (human, UniProt Q12809)?
-12.8

Value wanted: hERG current change (%, negative = inhibition) at 10uM (human ether-à-go-go-related gene (hERG) potassium channel (human, UniProt Q12809)) of entry `Cc1ccc(N(CC(=O)NC2CCCC2)C(=O)CCC(=O)Nc2nc(C)cs2)cc1`
-11.9

----------
# Study system: human ether-à-go-go-related gene (hERG) potassium channel (human, UniProt Q12809);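 further: peak tail current of the secondary pulse compared with the same well before compound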
# Assay: primary screen, population patch clamp on CHO cells stably expressing hERG; higher = less effect of the substance
Screen size: about 310,000 compounds; about 14,000 (4.5%) showed an effect of 50% or more. Effects have a minus sign here. The sample as a whole holds a higher share of strong results than the screen did.
# hERG current change (%, negative = inhibition) at 10uM listing for each entry below
Use % as the unit, but write only the number.

| Compound | Study system | Unit abbreviation | Val |
| --- | --- | --- | --- |
| COc1ccc(Nc2nnc(-c3ccc(C)cc3)c3ccccc23)cc1C(=O)N1CCCCC1 | human ether-à-go-go-related gene (hERG) potassium channel (human, UniProt Q12809) | % | -33.7 |
| CCN(CC)c1ccc(/C=N/O)cc1 | human ether-à-go-go-related gene (hERG) potassium channel (human, UniProt Q12809) | % | 18.3 |
| COc1ccc(-c2nnc(Nc3ccc(OC)c(C(=O)N4CCCCC4)c3)c3ccccc23)cc1 | human ether-à-go-go-related gene (hERG) potassium channel (human, UniProt Q12809) | % | -39.3 |

Entry CC1=CC(C)C2(COC(=O)Nc3ccccc3)COC(C)C1C2C (centres unmarked) : reported hERG current change (%, negative = inhibition) at 10uM = ?
-3.03

State the recorded hERG current change (%, negative = inhibition) at 10uM for this entry: `COc1ccc(Nc2nnc(-c3ccccc3)c3ccccc23)cc1C(=O)N1CCCCC1`
-73

Data request, read-out hERG current change (%, negative = inhibition) at 10uM, for `CCN(CC)Cc1cc2ccccc2c2c1COC2`
-44.1

Any idea what hERG current change (%, negative = inhibition) at 10uM was measured for `Cc1csc(NC(=O)c2ccc(C)s2)n1` ?
6.99

Reported hERG current change (%, negative = inhibition) at 10uM, compound `CCN(CC(=O)Nc1c(F)cccc1F)C(=O)C1CCC1` : ____
-13.8

Query (compound): `O=C(CNC(=O)c1cccc(Br)c1)NCCc1nc2ccccc2[nH]1` ; field requested: hERG current change (%, negative = inhibition) at 10uM
5.59

Tell me the measured hERG current change (%, negative = inhibition) at 10uM of `CCCN(CCC)Cc1cc2ccccc2c2c1COC2` , please.
-29

Give its hERG current change (%, negative = inhibition) at 10uM value. Item: `COc1ccc(Nc2nnc(-c3ccc(C(N)=O)cc3)c3ccccc23)cc1`
-33.9
